Test system: MS2 coat protein
experimental details: apparent KD of MS2 coat protein; designed switch direction (-1 OFF switch, 1 ON switch): 1; higher = weaker reporter binding
test settings: Eterna round: R95; input ligand: microRNA oligo, concentration not stated
experimental endpoint: apparent KD of MS2 coat protein

Worked examples, 2 sequences total:
- residue codes: "AAGGGAUGAGCGUAGGAUAUAGGAGAAGUGACAUGAGGAUCACCCAUGUAAAAGGAGGGAUGAGACUAGAAGGACGAGGUAGGAG [JR_SS2_Sub059] (puzzle: Same State 2)"
  experimental endpoint: "apparent KD of MS2 coat protein"
  obs value: "84.6 nM"
- residue codes: "CCCAUGAAUAGUCAGGAUAUACGAUUUUAUACAUGAGGAUCACCCAUGUUAAGACUCCUCAAUAAGUAGAAGGGACUAUUUAUAA [Tesla Same State 2] (puzzle: Same State 2)"
  experimental endpoint: "apparent KD of MS2 coat protein"
  obs value: "144 nM"

Continue with the sequence presented below.
Quick note, apparent KD of MS2 coat protein for CGUCCGGCCUGUGCUGGCCGGUUGCUUGUACAUGAGGAUCACCCAUGUUCUUGUGCAGGCUUUUUGCUCGUCUUGUG [salish99_mir208a_018] (puzzle: Sensor for hsa-mir-208a) landed at 25 nM

====

Test system: MS2 coat protein
experimental details: apparent KD of MS2 coat protein, switch OFF state (with FMN for OFF switches, without FMN for ON switches); designed switch direction (-1 OFF switch, 1 ON switch): -1; higher = weaker reporter binding
test settings: FMN input: 0 or 200 uM; Eterna round: R93 (includes R88 designs)
Each entry below lists one item and its recorded apparent KD of MS2 coat protein value.
Return type: number; implicit unit nM.

Known results for sequences:
- residue codes: "GAAAAGUCAGGAUAUGCAGAAAAAAAAACGAAAAAAAAACUGCAGAAGGGACAUGAGGAUCACCCAUGUUAAAG [Mat - Exclusion 4 - Mayanna - D128]"
  scale unit: "nM"
  obs value: 33.1
- residue codes: "UCACACCUAGGAUAUACAUGAGGAUCACCCAUGUGGCACUCCGCAGGCAUUGCUCCCAGUAGAAGGAGGACACG [Veterexe]"
  scale unit: "nM"
  obs value: 23.8
- residue codes: "AGCAAACAUGAGGAUCACCCAUGUCAGGAUAUGAACGAAAUAAAAUAAAAAUAAAAGUUCAGAAGGGACGAGCA [Mat - Exclusion 1 - Eli mod - D24]"
  scale unit: "nM"
  obs value: 43.5
- residue codes: "AAUAAGUCAGGAUAUACUAUGUCAGGAGAGAGACUGACUAUGUAGAAGGGACAUGAGGAUCACCCAUGUAAUAA [JR_Exclusion4_Sub5]"
  scale unit: "nM"
  obs value: 36.1
- residue codes: "UCCGGAUUAGGAUAUACAUGAGGAUCACCCAUGUGACAAAAAUAUUUUACAAAACCAUGUAGAAGGAAUCCGGA [E3-1.3]"
  scale unit: "nM"
  obs value: 408
- residue codes: "AAAAAGCGAGGAUAUACAUGAGGAUCACCCAUGUCAAAAGGUAAGACCGCAGAAAAAAGUAGAAGGCGCAAAAA [Exclusion3-01]"
  scale unit: "nM"
  obs value: 172
- residue codes: "AAAACUGGAGGAUAUACAUGAGGAUCACCCAUGUGUGGAUGAGCUGAAACGGCAUCACGUAGAAGGCCACAAAA [Gilly Gone Silly 40 - Jieux - Exclusion 3]"
  scale unit: "nM"
  obs value: 45.2
- residue codes: "AGGAAACAUGAGGAUCACCCAUGUAAGGAUAUGAACGAAAUAAAAUAAAAAUAAAAGUUCAGAAGGUACGAAAA [Mat - Exclusion 1 - Eli mod - D9]"
  scale unit: "nM"
  obs value: 40.3

For this sequence ( AGCUAGUCAGGAUAUACGAACAUGUCGGUGGACGUGAAGGGACAUGAGGAUCACCCAUGUAGAAGGGACUAGCA [salish99-Ex2-21] ), measured apparent KD of MS2 coat protein is 91.5

Memo: GGUUGGCGAGGAUAUACAUGAGGAUCACCCAUGUGAGAGAAAAAAGUGAGGAGGGAAAGUAGAAGGCGCUGACG [salish99-ex3-16] , reported apparent KD of MS2 coat protein: 41.9

Noted for CUCUAGUGAGGAUAUACAAGAAAAGAAGAGAAAGAAAAGAAGUAGAAGGCACAUGAGGAUCACCCAUGUAAGAA [EteRNA is fun!] : its apparent KD of MS2 coat protein reads 33.6

So for AUAAAUCGAGGAUAUACAUGAGGAUCACCCAUGUAAAUAAAUAAAUAAAACUCCACAAGUAGAAGGCGAAAUAA [JR_Exc003_Sub020] , the logged apparent KD of MS2 coat protein turned out to be 20.8

Note to self: apparent KD of MS2 coat protein recorded for AAAAAACAUGAGGAUCACCCAUGUAAGGAUAUCGGAAAAGGAAAAAAAAAAAAUAAGACGAGAAGGUACACCAA [Mat - Exclusion 1 - Eli mod - D79] was 31.2
